Reference for the values: ChEMBL document CHEMBL1132611

Below, each entry is listed alongside its reported IC50.
target: Phosphodiesterase 1 (Homo sapiens, UniProt P54750+Q01064+Q14123); assay: Inhibition of Phosphodiesterase 1 of guinea pig cardiac ventricle; format: protein assay, Cavia porcellus; conditions: target entry is the homologue from another species
Numeric only. Scale: µM

Below: 5 molecules and their reported IC50.
molecule=COc1cc2cc(CO)c(CO)c(-c3ccnc(-n4c(=O)ccc5ccccc54)c3)c2cc1OC target_desc="Phosphodiesterase 1 (Homo sapiens, UniProt P54750+Q01064+Q14123)" measured_quantity=IC50 unit_abbrev=µM value_measured=2
molecule=COc1cc2cc(CO)c(CO)c(-c3ccnc(-n4ccccc4=O)c3)c2cc1OC target_desc="Phosphodiesterase 1 (Homo sapiens, UniProt P54750+Q01064+Q14123)" measured_quantity=IC50 unit_abbrev=µM value_measured=50
molecule=CCOc1cc2c(-c3ccnc(-n4nc(-c5cccnc5)c5ccccc5c4=O)c3)c(CO)c(CO)cc2cc1OC.Cl target_desc="Phosphodiesterase 1 (Homo sapiens, UniProt P54750+Q01064+Q14123)" measured_quantity=IC50 unit_abbrev=µM value_measured=3
molecule=COc1cc2cc(CO)c(CO)c(-c3ccnc(-n4nc(-c5cccnc5)c5ccccc5c4=O)c3)c2cc1OC.Cl target_desc="Phosphodiesterase 1 (Homo sapiens, UniProt P54750+Q01064+Q14123)" measured_quantity=IC50 unit_abbrev=µM value_measured=2
molecule="CCOc1cc2cc(CO)c(CO)c(-c3ccnc(-n4nc(-c5cccnc5)c5ccccc5c4=O)c3)c2cc1OCC.Cl [T-2585.HCL]" target_desc="Phosphodiesterase 1 (Homo sapiens, UniProt P54750+Q01064+Q14123)" measured_quantity=IC50 unit_abbrev=µM value_measured=10

Query COc1cc2cc(CO)c(CO)c(-c3ccnc(-n4nc(-c5ccncc5)c5ccccc5c4=O)c3)c2cc1OC.Cl yields IC50 of 2

For COc1cc2cc(CO)c(CO)c(-c3ccnc(-n4ccc(=O)c5ccccc54)c3)c2cc1OC the molecule record lists IC50 as 9

For reference, reported IC50 for COc1cc2cc(CO)c(CO)c(-c3ccnc(-n4ncc5ccccc5c4=O)c3)c2cc1OC stands at 5

Data point: CCOc1cc2cc(CO)c(CO)c(-c3ccnc(-n4nc(-c5cccnc5)c5ccccc5c4=O)c3)c2cc1OC.Cl ; IC50 = 20

Recorded IC50 (molecule COc1cc2cc(CO)c(CO)c(-c3ccnc(-n4nc(-c5ccccn5)c5ccccc5c4=O)c3)c2cc1OC.Cl ): 4

###

target: Phosphodiesterase 1 (Homo sapiens, UniProt P54750+Q01064+Q14123); experiment: Inhibition of Phosphodiesterase 1 of guinea pig cardiac ventricle; assay type: protein assay, Cavia porcellus; conditions: target entry is the homologue from another species
Measured Quantity: IC50

Example results:
molecule="COc1ccc(C2CNC(=O)C2)cc1OC1CCCC1 (racemic)" value_measured="> 100 µM"
molecule=COc1cc2cc(CO)c(CO)c(-c3ccc(-n4nc(-c5cccnc5)c5ccccc5c4=O)nc3)c2cc1OC.Cl value_measured="> 100 µM"

# context switch: different molecule, same IC50
Assay Phosphodiesterase 1 (Homo sapiens, UniProt P54750+Q01064+Q14123), sample Cl.O=c1c2ccccc2c(-c2cccnc2)nn1-c1cc(-c2c(CO)c(CO)cc3ccccc23)ccn1 , IC50 read: > 100 µM
